test system: isolated rat liver mitochondria; assay: Oxygen consumption, Clark-type oxygen electrode; format: biochemical; settings: 4 µM
List of II-sub, % of control (O2 consumption rate) values.
experimental endpoint: II-sub, % of control (O2 consumption rate)

compound	target desc	result value
C=C(C)[C@H]1Cc2c(ccc3c2O[C@@H]2COc4cc(OC)c(OC)cc4[C@@H]2C3=O)O1 [Rotenone, reference compound]	isolated rat liver mitochondria	97 (26.2) % of control
O=C(Nc1ccccc1)Nc1cnns1 [Thidiazuron]	isolated rat liver mitochondria	119 (29.3) % of control
O=C(Nc1ccc(Oc2ccc(Cl)cc2)c(Cl)c1)c1cc(I)cc(I)c1O [Rafoxanide, reference compound]	isolated rat liver mitochondria	88 (18.1) % of control
CO[C@H]1/C=C/O[C@@]2(C)Oc3c(C)c(O)c4c(O)c(c(/C=N/N5CCN(C)CC5)c(O)c4c3C2=O)NC(=O)/C(C)=C\C=C\[C@H](C)[C@H](O)[C@@H](C)[C@@H](O)[C@@H](C)[C@H](OC(C)=O)[C@@H]1C [Rifampicin, reference compound]	isolated rat liver mitochondria	96 (23.5) % of control
O=C(Nc1ccccc1)Nc1ccccc1 [Diphenylurea]	isolated rat liver mitochondria	97 (18.0) % of control
CCOCn1c(-c2ccc(Cl)cc2)c(C#N)c(Br)c1C(F)(F)F [Chlorfenapyr]	isolated rat liver mitochondria	359 (75.1) % of control
O=C1c2ccccc2C(=O)C1C(=O)C(c1ccccc1)c1ccc(Cl)cc1 (stereo not shown) [Chlorophacinone]	isolated rat liver mitochondria	203 (42.5) % of control

###

tested on: rat primary hepatocytes; assay: MMP assay in rat primary hepatocytes; conditions: Rattus norvegicus, Hepatocyte, read-out: MMP assays IC50 (µM) Rat Hepatocytes
List of IC50 values.
experimental endpoint: IC50 (µM)

molecule	result value
Oc1c(Br)c(Br)c(Br)c(Br)c1Br	4.98
O=P(Oc1ccccc1)(Oc1ccccc1)Oc1ccccc1 [Triphenyl phosphate]	28.9
C=C1/C(=C\C=C2/CCC[C@]3(C)[C@@H]([C@H](C)CCCC(C)(C)O)CC[C@@H]23)C[C@@H](O)C[C@@H]1O	22.4
O=C1c2ccccc2C(=O)c2c1ccc(O)c2O	11.9
Nc1ccc(Cc2ccc(N)c(Cl)c2)cc1Cl	56.2
CC1(C)CCC(C)(C)c2cc(NC(=O)c3ccc(C(=O)O)cc3)ccc21	9.06
COc1ccc(C(=O)c2ccccc2)c(O)c1 [Compound 2-Hydroxy-4-methoxybenzophenone]	50.1

###

system: rat primary hepatocytes; assay: MMP assay in rat primary hepatocytes; settings: rat hepatocytes; mean ± SD of three experiments
experimental endpoint: MMP assays efficacy (%) Rat Hepatocytes

molecule	unit annotation	result value
CN1C(C(=O)Nc2ccccn2)=C(O)c2sc(Cl)cc2S1(=O)=O [Lornoxicam]	%	-57
CCCCCCCC[n+]1ccn(C)c1.F[B-](F)(F)F [1-Methyl-3-octylimidazolium tetrafluoroborate]	%	-76

###

test system: Caenorhabditis elegans (Bristol N2); test: C. elegans larval development and growth assay; conditions: 48 h exposure
List of LEC (lowest effect concentration), larval growth assay values.
experimental endpoint: LEC (lowest effect concentration), larval growth assay

compound	result value
NNc1nc(-c2ccccc2)cs1 [2-Hydrazino-4-phenylthiazole]	≤ 10 µM
CCc1cc(Cc2cc(CC)cc(C(C)(C)C)c2O)c(O)c(C(C)(C)C)c1	≤ 10 µM
N#CC(c1ccc(Cl)cc1)c1c(Cl)cc(-n2ncc(=O)[nH]c2=O)cc1Cl (stereo not shown) [Diclazuril, reference compound]	< 10 µM
Cc1cc(Cc2cc(C)cc(C(C)(C)C)c2O)c(O)c(C(C)(C)C)c1	≤ 10 µM

###

system: rat primary hepatocytes; test: MMP assay in rat primary hepatocytes; details: rat hepatocytes; mean ± SD of three experiments

compound	MMP assays efficacy (%) Rat Hepatocytes
CCCCCCCC[N+](C)(CCCCCCCC)CCCCCCCC.[Cl-] [N-Methyl-N,N-dioctyloctan-1-aminium chloride]	-100
Nc1ccc2c(c1)C(=O)c1ccccc1C2=O	-91
C=C1CC[C@H](O)C/C1=C/C=C1\CCC[C@]2(C)[C@@H]([C@H](C)CC[C@@H](O)C(C)(C)O)CC[C@@H]12 [24R,25-Dihydroxyvitamin D3]	-46
Cc1cc(C(=C2C=CC(=N)C=C2)c2ccc(N)cc2)ccc1N	-71
CC(O)(c1ccc(Cl)cc1)c1ccc(Cl)cc1	-90
CC(C)OC(=O)C(C(=O)OC(C)C)=C1SC=CS1 [Malotilate]	-106
Oc1ccc(OCc2ccccc2)cc1	-46
O=C(c1ccc(O)c(O)c1)c1ccc(O)cc1O [2,3',4,4'-Tetrahydroxybenzophenone]	-69
OCc1c2ccccc2cc2ccccc12	-68
Cc1c(Nc2ncccc2C(=O)O)cccc1C(F)(F)F	-107
CC(C)(c1cc(Br)c(O)c(Br)c1)c1cc(Br)c(O)c(Br)c1	-76
CCCOc1ccc2nc(NC(=O)OC)sc2c1	-65
Nc1ccc([N+](=O)[O-])cc1O	-63
CC(=O)Nc1ccc(S(=O)(=O)Nc2ccc([N+](=O)[O-])cc2)cc1	-63
O=C(O)c1cc(O)c2c(c1)C(=O)c1cccc(O)c1C2=O	-80
O=c1c2ccccc2[se]n1-c1ccccc1	-58
CCN1C(=CC=Cc2ccc3ccccc3[n+]2CC)C=Cc2ccccc21.[Cl-] [Pinacyanol chloride]	-99
Oc1ccc(-c2ccccc2)cc1Cl	-109
CCCCCCOc1ccccc1C(N)=O [Exalamide]	-59
NNc1nc(-c2ccc(N)cc2)cs1 [2-Hydrazino-4-(4-aminophenyl) thiazole]	-67
COCCOC(=O)C1=C(C)NC(C)=C(C(=O)OC/C=C/c2ccccc2)C1c1cccc([N+](=O)[O-])c1 (centres unmarked)	-75

###

Reported MMP assays efficacy (%) HepG2 for target or system HepG2 cells, by entry.
experimental endpoint: MMP assays efficacy (%) HepG2

compound	experimental endpoint	unit annotation	result value
Oc1ccc(C(c2ccc(O)cc2)C(Cl)(Cl)Cl)cc1	MMP assays efficacy (%) HepG2	%	-103
Cl.Nc1c2ccccc2nc2ccccc12.O	MMP assays efficacy (%) HepG2	%	-115
Clc1ccc(Nc2nnc(Cc3ccncc3)c3ccccc23)cc1	MMP assays efficacy (%) HepG2	%	-34
CC(=O)[O][Sn]([c]1ccccc1)([c]1ccccc1)[c]1ccccc1 [Triphenyltin acetate]	MMP assays efficacy (%) HepG2	%	-94
CC1=Nc2ccc3ccccc3c2C1(C)C [1,1,2-Trimethyl-1H-benzo[e]indole]	MMP assays efficacy (%) HepG2	%	-96
CCCCCc1cc(O)c2c(c1)OC(C)(C)[C@@H]1CCC(C)=C[C@@H]21	MMP assays efficacy (%) HepG2	%	-99
CCCCC/C(=C\c1ccccc1)CO	MMP assays efficacy (%) HepG2	%	-69
Cl.Cl.NNCc1ccccc1 [Benzylhydrazine dihydrochloride]	MMP assays efficacy (%) HepG2	%	-88
CNC(=O)c1cc(Oc2ccc(NC(=O)Nc3ccc(Cl)c(C(F)(F)F)c3)cc2)ccn1	MMP assays efficacy (%) HepG2	%	-92
COc1cc([C@@H]2c3cc4c(cc3[C@H](O)[C@H]3COC(=O)[C@@H]23)OCO4)cc(OC)c1OC	MMP assays efficacy (%) HepG2	%	-58

###

test system: HepG2 cells; conditions: read-out: HepG2 IC50 Glucose (MMP)
pIC50: −log10 of the molar value.

mol smiles	target desc	pIC50
CC(C)c1cccc(C(C)C)c1N1C(=O)c2ccc(O)cc2C1=O	HepG2 cells	4.70
CO/C=C(/C(=O)OC)c1ccccc1COc1cccc(C(F)(F)F)n1	HepG2 cells	4.87

###

system: HepG2 cells; assay: cells; conditions: Homo sapiens, HepG2, read-out: MMP assays efficacy (%) HepG2
List of Emax values.

compound	unit annotation	Emax
CC(C)=CCC1=C(O)C(=O)c2ccccc2C1=O [Lapachol]	%	113
O=C1OC(=O)c2cccc3cccc1c23 [1H,3H-Naphtho(1,8-cd)pyran-1,3-dione]	%	63
Oc1c(Cl)cc(Cl)cc1Sc1cc(Cl)cc(Cl)c1O [Sodium bithionolate]	%	116
C[C@]12CC[C@H]3C(=CCc4cc(O)ccc43)[C@@H]1CCC2=O [Equilin]	%	126
CC[C@@H](C(=O)[C@@H](C)[C@@H](O)[C@H](C)CCc1ccc(C)c(O)c1C(=O)O)[C@H]1O[C@](CC)([C@H]2CC[C@](O)(CC)[C@H](C)O2)C[C@@H]1C [Lasalocid sodium, reference compound]	%	99
NNc1nc(-c2ccccc2)cs1 [2-Hydrazino-4-phenylthiazole]	%	103
COc1ccc(C(=O)c2ccc(OC)cc2O)c(O)c1	%	109
CCCSP(=O)(OCC)Oc1ccc(Br)cc1Cl (centres unmarked) [Profenofos]	%	84

###

system: isolated rat liver mitochondria; test: Oxygen consumption, Clark-type oxygen electrode; assay type: biochemical; settings: 0.16 µM
experimental endpoint: I-sub, % of control (O2 consumption rate)

compound	result value
CCC(C)c1cc([N+](=O)[O-])cc([N+](=O)[O-])c1O (stereo not shown)	181 (23.7) % of control
O=C(Nc1ccccc1)Nc1cnns1	104 (13.6) % of control
CC(C)(C)c1cc([N+](=O)[O-])cc([N+](=O)[O-])c1O	206 (27.0) % of control
N#CC(C#N)=NNc1ccc(OC(F)(F)F)cc1 [FCCP, reference compound]	251 (34.8) % of control
